Tested on: rodent lifetime carcinogenesis bioassay, tumor incidence TD50
Assay: carcinogenic potency in animals, long-term in vivo studies, CPDB compilation (AID 1745844)
Conditions: rat; strain Fischer 344; females; by gavage; site: mammary gland; lesion: adenocarcinoma + adenoma + fibroadenoma; dosed 91 weeks; study length 105 weeks
Readout Type: TD50

QUERY: What does the data say about its TD50? Entry: ClCC(Cl)CCl
RESULT: 1.98 mg/kg/day

====

Test system: rodent lifetime carcinogenesis bioassay, tumor incidence TD50
Experiment: carcinogenic potency in animals, long-term in vivo studies, CPDB compilation (AID 1745844)
Conditions: mouse; strain B6C3F1; females; inhaled; site: liver; lesion: several types; types named in the paper; dosed 26 weeks; study length 104 weeks
Readout Type: TD50
Give me the value, and tack the unit on after it.

QUERY: # TD50 lookup, item ClCCl
RESULT: 1840 mg/kg/day
